- target or system: T1, P7
- T1 chain: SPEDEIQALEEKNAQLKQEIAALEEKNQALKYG
- protocol notes: two-hybrid library CC1;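 note: natural log of median RNA to DNA barcode read ratio; higher means stronger binding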
- assay setup: mean of both orientations
outcome measure: interaction score
Number only, no unit.

// solved cases for interaction score follow
KISQLKQKIQQLKQENQQLEEENSQLEYG [P4mS]
-2.78
KNAQLKEENAALEEKIQQLKEKIQALKYG [P10]
-0.907

Reported interaction score of SPEDKIAQLKQKIQALKQENQQLEEENAALEYG [P4] : -2.74

// recorded interaction score for SPEDKNAALKEEIQALEEENQALEEKIAQLKYG [P6] : -0.929
